Test: Bioavailability in Sprague-Dawley rat at 10 mg/kg, po
Format: ADME, organism-based
Conditions: in vivo

[
  {
    "LINE_NOTATION": "O=c1cc(C(F)(F)F)c2cc(N(CC(F)(F)F)CC(F)(F)F)ccc2[nH]1",
    "bioavailability [%]": 43
  }
]

====

Assay: AUC (0 to infinity) in Sprague-Dawley rat at 14.6 mg/kg, po
Type: ADME, organism-based
Set-up: time infinity, dose 14.6 mg/kg, route oral
Details: plasma
ASSAY_READOUT: AUC(0-inf) (ng·h/mL)

[
  {
    "LINE_NOTATION": "C[C@@H]1CC[C@H]([C@@H](O)C(F)(F)F)N1c1ccc2[nH]c(=O)cc(C(F)(F)F)c2c1",
    "ASSAY_READOUT": "AUC(0-inf)",
    "UNITS": "ng·h/mL",
    "OBSERVED_VALUE": 11800
  }
]

====

The following molecules each carry a recorded IC50 for Androgen receptor (Homo sapiens, UniProt P10275).
ASSAY_READOUT: IC50

[
  {
    "MOLECULE": "C[C@@H]1CC[C@H](CCl)N1c1ccc2[nH]c(=O)cc(C(F)(F)F)c2c1",
    "EXPERIMENTAL_SYSTEM": "Androgen receptor (Homo sapiens, UniProt P10275)",
    "ASSAY_READOUT": "IC50",
    "OBSERVED_VALUE": "> 10 µM"
  },
  {
    "MOLECULE": "O=c1cc(C(F)(F)F)c2cc(N3CCCC3)ccc2[nH]1",
    "EXPERIMENTAL_SYSTEM": "Androgen receptor (Homo sapiens, UniProt P10275)",
    "ASSAY_READOUT": "IC50",
    "OBSERVED_VALUE": "0.025 µM"
  },
  {
    "MOLECULE": "CC1CCCN1c1ccc2[nH]c(=O)cc(C(F)(F)F)c2c1 (racemic)",
    "EXPERIMENTAL_SYSTEM": "Androgen receptor (Homo sapiens, UniProt P10275)",
    "ASSAY_READOUT": "IC50",
    "OBSERVED_VALUE": "> 10 µM"
  },
  {
    "MOLECULE": "C[C@@H]1CC[C@@H](C)N1c1ccc2[nH]c(=O)cc(C(F)(F)F)c2c1 (racemic)",
    "EXPERIMENTAL_SYSTEM": "Androgen receptor (Homo sapiens, UniProt P10275)",
    "ASSAY_READOUT": "IC50",
    "OBSERVED_VALUE": "> 10 µM"
  }
]

====

// reported pKi per item
Target: Androgen receptor (Homo sapiens)
Sequence (P10275 whole entry): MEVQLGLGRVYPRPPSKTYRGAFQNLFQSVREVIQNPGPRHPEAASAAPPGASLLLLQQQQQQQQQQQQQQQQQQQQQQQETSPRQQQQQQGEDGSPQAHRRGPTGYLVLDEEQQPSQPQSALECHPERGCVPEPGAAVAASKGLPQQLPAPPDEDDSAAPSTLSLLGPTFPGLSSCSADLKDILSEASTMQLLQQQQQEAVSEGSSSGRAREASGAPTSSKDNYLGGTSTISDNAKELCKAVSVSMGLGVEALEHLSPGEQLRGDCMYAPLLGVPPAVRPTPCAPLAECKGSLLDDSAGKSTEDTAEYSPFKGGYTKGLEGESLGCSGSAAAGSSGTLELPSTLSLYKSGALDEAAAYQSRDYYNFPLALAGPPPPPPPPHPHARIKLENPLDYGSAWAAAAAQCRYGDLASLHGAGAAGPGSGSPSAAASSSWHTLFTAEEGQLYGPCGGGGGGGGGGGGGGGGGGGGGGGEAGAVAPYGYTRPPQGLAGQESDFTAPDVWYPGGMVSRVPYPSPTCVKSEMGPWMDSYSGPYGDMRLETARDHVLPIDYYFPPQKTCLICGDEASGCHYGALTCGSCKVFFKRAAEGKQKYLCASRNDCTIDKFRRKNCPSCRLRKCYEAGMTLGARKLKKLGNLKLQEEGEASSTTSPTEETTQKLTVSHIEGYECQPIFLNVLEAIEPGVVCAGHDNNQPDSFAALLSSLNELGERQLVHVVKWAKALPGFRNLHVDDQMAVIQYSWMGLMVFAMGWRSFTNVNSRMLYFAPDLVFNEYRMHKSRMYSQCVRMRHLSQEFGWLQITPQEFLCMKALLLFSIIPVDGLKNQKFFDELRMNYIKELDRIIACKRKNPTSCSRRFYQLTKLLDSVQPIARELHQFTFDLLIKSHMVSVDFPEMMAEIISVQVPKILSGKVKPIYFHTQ
pKi: −log10 of the molar value.

[
  {
    "MOLECULE": "O=c1cc(C(F)(F)F)c2cc(N3CCCC3)ccc2[nH]1",
    "pKi": 5.77
  },
  {
    "MOLECULE": "C[C@@H]1CC[C@@H](C)N1c1ccc2[nH]c(=O)cc(C(F)(F)F)c2c1 (racemic)",
    "pKi": 7.37
  },
  {
    "MOLECULE": "C[C@@H]1CC[C@H](CCl)N1c1ccc2[nH]c(=O)cc(C(F)(F)F)c2c1",
    "pKi": 8.00
  },
  {
    "MOLECULE": "CC1CCCN1c1ccc2[nH]c(=O)cc(C(F)(F)F)c2c1 (racemic)",
    "pKi": 7.14
  },
  {
    "MOLECULE": "C[C@@H]1CC[C@H]([C@H](O)C(F)(F)F)N1c1ccc2[nH]c(=O)cc(C(F)(F)F)c2c1",
    "pKi": 8.12
  },
  {
    "MOLECULE": "C[C@@H]1CC[C@H](CO)N1c1ccc2[nH]c(=O)cc(C(F)(F)F)c2c1",
    "pKi": 7.15
  },
  {
    "MOLECULE": "C[C@@H]1CC[C@H]([C@@H](O)C(F)(F)F)N1c1ccc2[nH]c(=O)cc(C(F)(F)F)c2c1",
    "pKi": 8.82
  },
  {
    "MOLECULE": "C[C@@H]1CC[C@H](C)N1c1ccc2[nH]c(=O)cc(C(F)(F)F)c2c1",
    "pKi": 7.72
  }
]
